Kindly state growth inhibition for each of the entries shown.
Test: Restrictive medium S. cerevisiae growth inhibition, OD615, pilot screen of yeast lifespan reduction project, restrictive growth control (AID 706);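 also: modified DeaD lifespan yeast strain shifted to restrictive glucose medium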
Details: OD615, 48 h, at 10 µM, hits give high values
State the answer as a number, implicitly in %.

Please give the measured growth inhibition for this compound: COC(=O)c1ccc2c(c1)N(Cc1cc(C)ccc1C)C(=O)c1ccccc1S2=O (centres undefined)
-2.77

Then this compound: O=C(OCN1C(=O)c2ccccc2C1=O)c1ccco1
0.045

Now the same for Cc1nc2ccc(NC(=O)c3ccc(S(=O)(=O)N4CCOCC4)cc3)cc2s1
-2.84

Param item: CCOC(=O)C1CCCN(C(=O)C2CCCN(S(=O)(=O)c3ccc4c(c3)oc(=O)n4C)C2)C1 (centres undefined)
-0.98

Param item: CC1=C(C(=O)OCc2ccc3c(c2)OCO3)C(c2ccccc2)NC(=O)N1 (centres undefined)
-9.41

Try this compound next: CCCC(=O)NCCCc1nc2ccccc2n1C
-0.54

Moving on to the next compound: O/N=C1/C2C3CC4C5C3C1C5C1(OCCO1)C42 (centres undefined)
-16.9

One more compound: Cc1c(C(=O)NCc2ccccc2)oc2ccc(S(=O)(=O)N3CCC4(CC3)OCCO4)cc12
2.71

For Cc1c(C(=O)NCC2COc3ccccc3O2)oc2ccc(S(=O)(=O)N3CCOCC3)cc12 (centres undefined) then?
-8.28

Moving on to COc1cccc(-c2nc(CS(=O)CC(=O)NCc3ccc4c(c3)OCO4)c(C)o2)c1 (centres undefined)
14.7

Then this compound: Cc1ccc(S(=O)(=O)N2CCC(C(=O)N[C@@H](C)C(=O)NCC3CCCO3)CC2)cc1 (some centres undefined)
-9.68

CCC(=O)N1CCc2cc(Br)cc(S(=O)(=O)CCC(=O)NCc3ccco3)c21 , same question.
0.16

Entry to check: Cc1cccc(N=C2NC(=O)/C(=C3/C(=O)N(C)c4ccccc43)S2)c1C
-15.6

Then what about the compound CN(C)C(CNC(=O)c1cccs1)c1cccnc1 (centres undefined) ?
-20.4

// repeat for Cc1c(C(=O)NCC2CCCO2)oc2ccc(S(=O)(=O)N3CCCC3)cc12 (centres undefined) and report
-3.9

Another compound to check: C(=N\c1nccs1)/c1c[nH]c2ccccc12
7.43

Next entry: COc1ccc(S(=O)(=O)Cc2ccc(C(=O)N3CCN(c4ccc(Cl)cc4)CC3)o2)cc1
-3.86

Then CCCCNC(=O)C1C2C=CC3(CN(Cc4ccc(C)cc4)C(=O)C13)O2 (centres undefined) ?
-16.4

Follow-up entry: Cn1c(=O)oc2cc(S(=O)(=O)N3CCCc4ccccc43)ccc21
-1.98

Same again, this time with O=C(NC1(C(F)(F)F)Oc2ccccc2O1)N1CCCC1
-7.95

Query CN(C)c1ccnc2sc(C(=O)NCc3ccccc3)c(N)c12 next
17.5

What do you get for COc1ccc(S(=O)(=O)n2nc(-c3cc(OC)c(OC)c(OC)c3)cc2N)cc1OC ?
12.7

// repeat for CC1CCC(NC(=O)c2cc3c(=O)n(C)c4ccccc4c3n2C)CC1 (centres undefined) and report
-9.28

Follow-up item: Cc1ccc(C)c(NC(=O)CSc2nnc(-c3ccncc3)n2N)c1
-0.075

Entry Cc1cc(C)nc(SCCn2c(N3CCC(C)CC3)nc3c2c(=O)n(C)c(=O)n3C)n1 please
0.625

Same read-out for O=C(O)c1ccc(CSc2nnc(-c3ccco3)o2)cc1 ?
9.04

Okay, and COc1ccccc1C1CC(=O)NC(SCC(=O)Nc2ccccc2)=C1C#N (centres undefined) ?
-11.8

Now the compound COc1cc(C(=O)Nc2cccc(-c3nc4ccccc4o3)c2C)cc(OC)c1OC
-26.2

Then Cc1cc(Nc2ccc(F)cc2)n2nc(C)nc2n1 ?
4.12

// next record CCSc1nnc(Cn2c(=O)sc3ccccc32)n1C
5.23

Can you check CCC(NC(=O)c1ccccc1NC(=O)c1ccco1)C(=O)NC1CCCCC1 (centres undefined) next?
7.98

Entry to check: CC(=O)c1ccc(OCC(O)CN2CCN(Cc3ccccc3)CC2)cc1 (centres undefined)
4.36

Another compound to check: C=COCCn1c(-c2nonc2N)nc2ccccc21
-3.9

Repeat with Cc1cc(C(=O)NC(C)c2ccncc2)no1 (centres undefined)
8.19

Item: CN1CCc2c(sc3nc(SCC(N)=O)n(-c4ccccc4)c(=O)c23)C1
9.25

What do you get for Cc1ccccc1NC(=O)C1CC(Cl)=CCC1C(=O)O (centres undefined) ?
-0.385

Do the same for CCCCN1C(=O)C(O)(CC(=O)c2ccco2)c2cc(Br)ccc21 (centres undefined) please
2.35

Also check CCOC(=O)COC(=O)c1ccc(O)cc1
-13.5

Queued: COc1ccccc1S(=O)(=O)Cc1ccc(C(=O)NCc2ccc3c(c2)OCO3)o1
-26.9

// query: O=C(NCCN1C(=O)C2C3C=CC(C3)C2C1=O)Nc1ccccc1 (centres undefined)
1.35

What about CC(C)(Oc1ccc(Cl)cc1)C(=O)OCC(=O)N1CCCC1 ?
-11

What about COc1cc2c(cc1OC)C(C(=O)NC1CC1)C1c3ccccc3CCN1C2=O (centres undefined) ?
-13.4

# iterate: Cc1nn(C)c(C)c1S(=O)(=O)N(CC(=O)NCCN1CCOCC1)c1ccc(C(C)C)cc1
-11.8

What would you report for O=C(CSc1nnc(-c2cccs2)o1)N1CCCCC1 ?
11.9
